- tgt: PPAR Alpha (Homo sapiens, UniProt Q07869)
- Sequence (Q07869 1-468): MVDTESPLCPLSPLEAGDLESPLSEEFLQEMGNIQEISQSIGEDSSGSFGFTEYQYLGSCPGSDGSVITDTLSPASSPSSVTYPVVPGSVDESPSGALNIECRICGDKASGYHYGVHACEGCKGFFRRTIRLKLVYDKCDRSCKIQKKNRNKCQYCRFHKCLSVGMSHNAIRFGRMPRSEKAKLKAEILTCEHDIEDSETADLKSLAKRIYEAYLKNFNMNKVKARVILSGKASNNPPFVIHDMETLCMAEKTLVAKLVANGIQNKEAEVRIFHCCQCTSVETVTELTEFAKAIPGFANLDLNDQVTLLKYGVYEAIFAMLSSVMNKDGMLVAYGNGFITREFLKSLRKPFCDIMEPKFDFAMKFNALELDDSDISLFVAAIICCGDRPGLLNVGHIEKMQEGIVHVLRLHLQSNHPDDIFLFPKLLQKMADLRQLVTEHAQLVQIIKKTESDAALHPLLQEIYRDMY
- assayOverview: PathHunter NHR protein interaction / nuclear translocation agonist test, PPAR Alpha
- Format: cell-based
- runParameters: agonist mode; read-out: PPAR Alpha EC50
pEC50: −log10 of the molar value.
Listed below: pEC50 values for each entry.

Some entries whose results are on file:
CSc1ccc(C(=O)[C@@H]2CN(C(=O)Oc3ccc(C(C)C)cc3)C[C@H]2c2cc(C)c(OC(C)(C)C(=O)O)c(C)c2)cc1 (single isomer, unassigned) [Compound 40]; > 7.00
Cc1cc(CC2CN(C(=O)Oc3ccccc3)CC2C(=O)c2ccc(F)cc2)cc(C)c1OC(C)(C)C(=O)O (single isomer, unassigned) [Compound 69]; > 7.00

Shifting focus to the molecule that follows.
Qu. Any idea what its pEC50 is? The molecule is CSc1ccc(C(=O)C2CN(C(=O)Oc3ccccc3)CC2Cc2ccc(OC(C)(C)C(=O)O)cc2F)cc1 (single isomer, unassigned) [Compound 83]
Ans. 6.82 to 7.00

* * *

- tgt: PPAR Delta (Homo sapiens, UniProt Q03181)
- Sequence (Q03181 1-441): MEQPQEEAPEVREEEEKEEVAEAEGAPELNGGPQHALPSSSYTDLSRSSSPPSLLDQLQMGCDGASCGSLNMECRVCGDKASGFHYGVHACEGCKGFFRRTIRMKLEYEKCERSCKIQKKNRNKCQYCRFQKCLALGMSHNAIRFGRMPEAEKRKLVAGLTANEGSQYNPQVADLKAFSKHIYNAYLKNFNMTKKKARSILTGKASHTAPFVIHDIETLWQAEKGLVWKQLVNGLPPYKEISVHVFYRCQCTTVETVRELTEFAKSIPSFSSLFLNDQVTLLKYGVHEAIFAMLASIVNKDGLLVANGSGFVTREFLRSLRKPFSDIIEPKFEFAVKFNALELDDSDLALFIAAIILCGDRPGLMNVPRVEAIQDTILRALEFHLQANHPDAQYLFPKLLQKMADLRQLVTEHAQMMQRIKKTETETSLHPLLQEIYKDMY
- assayOverview: PathHunter NHR protein interaction / nuclear translocation agonist test, PPAR Delta
- Format: cell-based
- runParameters: agonist mode; read-out: PPAR Delta EC50
propertyName: EC50

CSc1ccc(C(=O)C2CN(C(=O)Oc3ccc(C)cc3)CC2c2cc(C)c(OC(C)(C)C(=O)O)c(C)c2)cc1 (single isomer, unassigned) [Compound 39]; 0.1 to 0.15 µM
CSc1ccc(C(=O)C2CN(C(=O)Oc3ccccc3)CC2Cc2cccc(OC(C)(C)C(=O)O)c2)cc1 (single isomer, unassigned) [Compound 49]; 0.1 to 0.15 µM
Cc1cc(CCC2CN(C(=O)Oc3ccccc3)CC2C(=O)c2ccccc2)cc(C)c1OC(C)(C)C(=O)O (single isomer, unassigned) [Compound 62]; 0.1 to 0.15 µM
CSc1ccc(C(=O)[C@H]2CN(C(=O)Nc3ccc(Cl)cc3)C[C@@H]2c2cc(C)c(OC(C)(C)C(=O)O)c(C)c2)cc1 (racemic) [Compound 37]; 0.2 to 0.25 µM
CSc1ccc(C(=O)C2CN(C3COC3)C[C@@H]2CCc2cc(C)c(OC(C)(C)C(=O)O)c(C)c2)cc1 (mixture of isomers) [Compound 73]; > 0.25 µM
CSc1ccc(C(=O)[C@@H]2CN(S(C)(=O)=O)C[C@H]2CCc2cc(C)c(OC(C)(C)C(=O)O)c(C)c2)cc1 (single isomer, unassigned) [Compound 75]; 0.2 to 0.25 µM
CSc1ccc(C(=O)C2CN(C(=O)OC(C)C)CC2CCc2cc(C)c(OC(C)(C)C(=O)O)c(C)c2)cc1 (single isomer, unassigned) [Compound 58]; < 0.1 µM
CSc1ccc(C(=O)C2CN(C(=O)Oc3ccccc3)CC2Cc2ccc(OC(C)(C)C(=O)O)cc2F)cc1 (single isomer, unassigned) [Compound 83]; 0.2 to 0.25 µM
CSc1ccc(C(=O)C2CN(C(=O)Oc3ccccc3)CC2Cc2cccc(OC(C)(C)C(=O)O)c2)cc1 (single isomer, unassigned) [Compound 50]; 0.15 to 0.2 µM
Cc1cc(CC[C@H]2CN(C(=O)Oc3ccccc3)C[C@@H]2C(=O)c2ccc([S+](C)[O-])cc2)cc(C)c1OC(C)(C)C(=O)O (mixture of isomers) [Compound 67]; > 0.25 µM

Qu. Field: EC50 (PPAR Delta (Homo sapiens, UniProt Q03181)). Entry: COCCN1CC(CCc2cc(C)c(OC(C)(C)C(=O)O)c(C)c2)C(C(=O)c2ccc(SC)cc2)C1 (centres unmarked) [Compound 59]
Ans. 0.2 to 0.25 µM
